Assignment: determine reported IC50 for the given compounds.
Biological target: CyclinE1/CDK2 (Homo sapiens)
Construct: purchased Eurofins, discovery 14-475
Assay: Fluorescence Polarization (FP) competitive binding assay, Cyclin E1/Cdk2
Details: 10 nM Cyclin E1/Cdk2, 2 nM FAM probe; average of 2-3 independent experiments; read-out: Cyclin E FP IC50
*1 amine or outer side, *2 acyl side, *3 side chain or, on linkers, in order; H or OH if unused. Where a SMILES comes first, the peptide text is derived from it. Bridges are numbered along the chain shown (N, C = ends). [ ]: non-standard residue; d: D form. The star is where a group is joined. X80 = CN1CC=C(c2ccc(-c3ccc(Cl)cc3C[C@@H](C(=O)[*:2])N(C)[*:1])cc2)CC1; X175 = Cc1cc(-c2ccc(Cl)cc2C[C@@H](C(=O)[*:2])N(C)[*:1])ccc1N1CCOCC1; NMehhhLys(Me) = CN([C@@H](CCCCCCCN(C)[*:3])C(=O)[*:2])[*:1]; cBuCO(3,3-F2-1-CF3) = O=C(C1(C(F)(F)F)CC(F)(F)C1)*; Pro(trans-4-F) = O=C(O)[C@@H]1C[C@@H](F)CN1; Gly(cPr) = N[C@H](C(=O)O)C1CC1
Please reply with the bare figure in nM and do not write the unit itself.

Specify reported IC50 for the compound shown: `CC(C)C[C@@H]1NC(=O)[C@@H](N(C)C(=O)[C@@H](NC(=O)[C@@H]2C[C@@H](F)CN2C(=O)C2(C(F)(F)F)CC(F)(F)C2)C2CC2)CCCC=CCCNC(=O)[C@H](Cc2cc(Cl)ccc2-c2cnn(C)c2)N(C)C1=O`
1700

Specify reported IC50 for the compound shown: CC(C)C[C@@H]1NC(=O)[C@@H](N(C)C(=O)[C@@H](NC(=O)[C@@H]2C[C@@H](F)CN2C(=O)C2(C(F)(F)F)CC(F)(F)C2)C2CC2)CCCCCCCN(C)C(=O)[C@H](Cc2cc(Cl)ccc2-c2ccc(C3=CCN(C)CC3)cc2)N(C)C1=O [Example 351] ({cBuCO(3,3-F2-1-CF3)}-[Pro(trans-4-F)][Gly(cPr)][NMehhhLys(Me)]L[X80]; lactam 3-C)
970

Specify reported IC50 for the compound shown: Cc1cc(-c2ccc(Cl)cc2C[C@H]2C(=O)N(C)CCCCCCC[C@H](N(C)C(=O)[C@@H](NC(=O)[C@@H]3C[C@@H](F)CN3C(=O)C3(C(F)(F)F)CC(F)(F)C3)C3CC3)C(=O)N[C@@H](CC(C)C)C(=O)N2C)ccc1N1CCOCC1 [Example 344] ({cBuCO(3,3-F2-1-CF3)}-[Pro(trans-4-F)][Gly(cPr)][NMehhhLys(Me)]L[X175]; lactam 3-C)
1270

###

Assignment: determine reported GI50 for the given compounds.
System: NCI-H1048 cells
Experiment: MTT proliferation assay, NCI-H1048;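 further: Dose-response in 96-well plates over 8 or 10 concentration points, with exposure spanning 3-4 cell doublings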
Type: cell-based
Conditions: 5 days compound exposure, 1:3 serial dilution starting at 10 μM
*1 amine or outer side, *2 acyl side, *3 side chain or, on linkers, in order; H or OH if unused. Where a SMILES comes first, the peptide text is derived from it. Bridges are numbered along the chain shown (N, C = ends). [ ]: non-standard residue; d: D form. The star is where a group is joined. NMePhe(5-Cl,2-O(2-Pym)) = CN[C@@H](Cc1cc(Cl)ccc1Oc1ncccn1)C(=O)O; NMehhhLys(Me) = CN([C@@H](CCCCCCCN(C)[*:3])C(=O)[*:2])[*:1]; NMe(hhhLys) = CN([C@@H](CCCCCCCN[*:3])C(=O)[*:2])[*:1]; X210 = CC(C)=Cc1ccc(Cl)cc1C[C@@H](C(=O)[*:2])N(C)[*:1]; Cyclobutanecarbonyl(1-CF3) = O=C(C1(C(F)(F)F)CCC1)*; cBuCO(3,3-F2-1-CF3) = O=C(C1(C(F)(F)F)CC(F)(F)C1)*; Pro(trans-4-F) = O=C(O)[C@@H]1C[C@@H](F)CN1; Gly(cPr) = N[C@H](C(=O)O)C1CC1
Please reply with the bare figure in µM and do not write the unit itself.

Under NCI-H1048 cells: report GI50 of CC(C)C[C@@H]1NC(=O)[C@@H](N(C)C(=O)[C@@H](NC(=O)[C@@H]2C[C@@H](F)CN2C(=O)C2(C(F)(F)F)CCC2)C2CC2)CCCCCCCN(C)C(=O)[C@H](Cc2cc(Cl)ccc2Oc2ncccn2)N(C)C1=O [Example 159] ({Cyclobutanecarbonyl(1-CF3)}-[Pro(trans-4-F)][Gly(cPr)][NMehhhLys(Me)]L[NMePhe(5-Cl,2-O(2-Pym))]; lactam 3-C) .
0.01

Under NCI-H1048 cells: report GI50 of CC(C)C[C@@H]1NC(=O)[C@@H](N(C)C(=O)[C@@H](NC(=O)[C@@H]2C[C@@H](F)CN2C(=O)C2(C(F)(F)F)CCC2)C2CC2)CC=CCCCCNC(=O)[C@H](Cc2cc(Cl)ccc2Oc2ncccn2)N(C)C1=O (single isomer, unassigned) [Example 156-P1] .
0.48

Under NCI-H1048 cells: report GI50 of CC(C)=Cc1ccc(Cl)cc1C[C@H]1C(=O)NCCCCCCC[C@H](N(C)C(=O)[C@@H](NC(=O)[C@@H]2C[C@@H](F)CN2C(=O)C2(C(F)(F)F)CC(F)(F)C2)C2CC2)C(=O)N[C@@H](CC(C)C)C(=O)N1C [Example 62] ({cBuCO(3,3-F2-1-CF3)}-[Pro(trans-4-F)][Gly(cPr)][NMe(hhhLys)]L[X210]; lactam 3-C) .
0.06

###

Assignment: determine reported pIC50 for the given compounds.
Biological target: CyclinE1/CDK2 (Homo sapiens)
Construct: purchased Eurofins, discovery 14-475
Assay: Fluorescence Polarization (FP) competitive binding assay, Cyclin E1/Cdk2;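 further: readings taken after two-hour equilibration at room temperature in HEPES buffer with NaCl, DTT, NP-40 and BSA, IC50 fitted from eight-concentration serial dilution series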
Settings: 10 nM Cyclin E1/Cdk2, 2 nM FAM probe; average of 2-3 independent experiments; read-out: Cyclin E FP IC50
*1 amine or outer side, *2 acyl side, *3 side chain or, on linkers, in order; H or OH if unused. Where a SMILES comes first, the peptide text is derived from it. Bridges are numbered along the chain shown (N, C = ends). [ ]: non-standard residue; d: D form. The star is where a group is joined. NMehhhLys(Me) = CN([C@@H](CCCCCCCN(C)[*:3])C(=O)[*:2])[*:1]; X22 = CN([C@@H](Cc1cc(Cl)ccc1-c1cnn(C)c1)C(=O)[*:2])[*:1]; NMe(hhhLys) = CN([C@@H](CCCCCCCN[*:3])C(=O)[*:2])[*:1]; cBuCO(3,3-F2-1-CF3) = O=C(C1(C(F)(F)F)CC(F)(F)C1)*; X4 = Cc1ccc(Cl)cc1C[C@@H](C(=O)[*:2])N(C)[*:1]; Pro(trans-4-F) = O=C(O)[C@@H]1C[C@@H](F)CN1; Gly(cPr) = N[C@H](C(=O)O)C1CC1
# pIC50: negative log10 of molar concentration; output just the value

Specify reported pIC50 for the compound shown: CC(C)C[C@@H]1NC(=O)[C@@H](N(C)C(=O)[C@@H](NC(=O)[C@@H]2CCCN2C(=O)C2(C(F)(F)F)CC(F)(F)C2)C2CC2)CCCCCCCN(C)C(=O)[C@H](Cc2cc(Cl)ccc2-c2cnn(C)c2)N(C)C1=O [Example 77] ({cBuCO(3,3-F2-1-CF3)}-P[Gly(cPr)][NMehhhLys(Me)]L[X22]; lactam 3-C)
5.77

Specify reported pIC50 for the compound shown: Cc1ccc(Cl)cc1C[C@H]1C(=O)NCCCCCCC[C@H](N(C)C(=O)[C@@H](NC(=O)[C@@H]2C[C@@H](F)CN2C(=O)C2(C(F)(F)F)CC(F)(F)C2)C2CC2)C(=O)N[C@@H](CC(C)C)C(=O)N1C [Example 270] ({cBuCO(3,3-F2-1-CF3)}-[Pro(trans-4-F)][Gly(cPr)][NMe(hhhLys)]L[X4]; lactam 3-C)
6.43

###

Target: CyclinB1/CDK1 (Homo sapiens, UniProt P14635)
Construct: purchased Eurofins, discovery 14-450
Test: Fluorescence Polarization (FP) competitive binding assay, Cyclin B1/Cdk1;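 further: fluorescence polarization read after equilibration at room temperature, with IC50 taken from serially diluted dose-response curves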
Conditions: read-out: Cyclin B FP IC50; 10 nM Cyclin B1/Cdk1, 2 nM FAM probe; average of 2-3 independent experiments
*1 amine or outer side, *2 acyl side, *3 side chain or, on linkers, in order; H or OH if unused. Where a SMILES comes first, the peptide text is derived from it. Bridges are numbered along the chain shown (N, C = ends). [ ]: non-standard residue; d: D form. The star is where a group is joined. X16 = CN([C@@H](Cc1cc(Cl)ccc1-c1cnc2c(cnn2C)c1)C(=O)[*:2])[*:1]; X111 = CN([C@@H](Cc1cc(Cl)ccc1-c1nnc(C2CC2)o1)C(=O)[*:2])[*:1]; NMehhhLys(Me) = CN([C@@H](CCCCCCCN(C)[*:3])C(=O)[*:2])[*:1]; Spiro(3.3)heptane2CO(2-CF3) = O=C(C1(C(F)(F)F)CC2(CCC2)C1)*; X139 = Cc1[nH]ncc1-c1ccc(Cl)cc1C[C@@H](C(=O)[*:2])N(C)[*:1]; X168 = Cc1ncc(-c2ccc(Cl)cc2C[C@@H](C(=O)[*:2])N(C)[*:1])o1; X67 = Cc1c(-c2ccc(Cl)cc2C[C@@H](C(=O)[*:2])N(C)[*:1])cnn1C; X22 = CN([C@@H](Cc1cc(Cl)ccc1-c1cnn(C)c1)C(=O)[*:2])[*:1]; cBuCO(3,3-F2-1-CF3) = O=C(C1(C(F)(F)F)CC(F)(F)C1)*; Pro(trans-4-F) = O=C(O)[C@@H]1C[C@@H](F)CN1; Gly(cPr) = N[C@H](C(=O)O)C1CC1
Readout kind: IC50 (nM)
Please reply with the bare figure in nM and do not write the unit itself.

Specify reported IC50 for the compound shown: CC(C)C[C@@H]1NC(=O)[C@@H](N(C)C(=O)[C@@H](NC(=O)[C@@H]2C[C@@H](F)CN2C(=O)C2(C(F)(F)F)CC3(CCC3)C2)C2CC2)CCCCCCCN(C)C(=O)[C@H](Cc2cc(Cl)ccc2-c2cnn(C)c2)N(C)C1=O [Example 203] ({Spiro(3.3)heptane2CO(2-CF3)}-[Pro(trans-4-F)][Gly(cPr)][NMehhhLys(Me)]L[X22]; lactam 3-C)
20

Specify reported IC50 for the compound shown: Cc1ncc(-c2ccc(Cl)cc2C[C@H]2C(=O)N(C)CCCCCCC[C@H](N(C)C(=O)[C@@H](NC(=O)[C@@H]3C[C@@H](F)CN3C(=O)C3(C(F)(F)F)CC(F)(F)C3)C3CC3)C(=O)N[C@@H](CC(C)C)C(=O)N2C)o1 [Example 206] ({cBuCO(3,3-F2-1-CF3)}-[Pro(trans-4-F)][Gly(cPr)][NMehhhLys(Me)]L[X168]; lactam 3-C)
20

Specify reported IC50 for the compound shown: Cc1[nH]ncc1-c1ccc(Cl)cc1C[C@H]1C(=O)N(C)CCCCCCC[C@H](N(C)C(=O)[C@@H](NC(=O)[C@@H]2C[C@@H](F)CN2C(=O)C2(C(F)(F)F)CC(F)(F)C2)C2CC2)C(=O)N[C@@H](CC(C)C)C(=O)N1C [Example 211] ({cBuCO(3,3-F2-1-CF3)}-[Pro(trans-4-F)][Gly(cPr)][NMehhhLys(Me)]L[X139]; lactam 3-C)
20

Specify reported IC50 for the compound shown: CC(C)C[C@@H]1NC(=O)[C@@H](N(C)C(=O)[C@@H](NC(=O)[C@@H]2C[C@@H](F)CN2C(=O)C2(C(F)(F)F)CC(F)(F)C2)C2CC2)CCCCCCCN(C)C(=O)[C@H](Cc2cc(Cl)ccc2-c2nnc(C3CC3)o2)N(C)C1=O [Example 240] ({cBuCO(3,3-F2-1-CF3)}-[Pro(trans-4-F)][Gly(cPr)][NMehhhLys(Me)]L[X111]; lactam 3-C)
20

Specify reported IC50 for the compound shown: CC(C)C[C@@H]1NC(=O)[C@@H](N(C)C(=O)[C@@H](NC(=O)[C@@H]2C[C@@H](F)CN2C(=O)C2(C(F)(F)F)CC(F)(F)C2)C2CC2)CCCCCCCN(C)C(=O)[C@H](Cc2cc(Cl)ccc2-c2cnc3c(cnn3C)c2)N(C)C1=O [Example 250] ({cBuCO(3,3-F2-1-CF3)}-[Pro(trans-4-F)][Gly(cPr)][NMehhhLys(Me)]L[X16]; lactam 3-C)
20

Specify reported IC50 for the compound shown: Cc1c(-c2ccc(Cl)cc2C[C@H]2C(=O)N(C)CCCCCCC[C@H](N(C)C(=O)[C@@H](NC(=O)[C@@H]3C[C@@H](F)CN3C(=O)C3(C(F)(F)F)CC(F)(F)C3)C3CC3)C(=O)N[C@@H](CC(C)C)C(=O)N2C)cnn1C [Example 234] ({cBuCO(3,3-F2-1-CF3)}-[Pro(trans-4-F)][Gly(cPr)][NMehhhLys(Me)]L[X67]; lactam 3-C)
20
